# assay-explanation: PK characteristics in humans (plasma, LC/MS/MS)
# Type: in vivo, human
# cond: human, plasma, oral, 240 mg, Day 15, 240 mg, n=2, mean; read-out: AUC0-24
readout-name: AUC(0-t) (ng·h/mL)
Answers are plain numbers, in ng·h/mL.

Requested field: AUC(0-t). Item: Nc1cc(C(F)(F)F)c(-c2nc(N3CCOCC3)c3nc(-c4cccc(NS(=O)(=O)CCCF)c4F)ccc3n2)cn1
14900

----------
# assay-explanation: PK characteristics in humans (plasma, LC/MS/MS)
# Format: in vivo, human
# cond: human, plasma, oral, 40 mg, Day 1, 40 mg, n=2, mean; read-out: Cmax
readout-name: Cmax (ng/mL)
Answers are plain numbers, in ng/mL.

Requested field: Cmax. Item: Nc1cc(C(F)(F)F)c(-c2nc(N3CCOCC3)c3nc(-c4cccc(NS(=O)(=O)CCCF)c4F)ccc3n2)cn1 [CMPD A]
192
